target_or_test_system: T1, 4H458-AA
T1 chain: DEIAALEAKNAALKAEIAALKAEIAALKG
experiment_notes: two-hybrid library CCmax;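 further: natural log of median RNA to DNA barcode read ratio; higher means stronger binding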
experimental_setup: mean of both orientations

{"columns": ["binder", "interaction score"],
 "data": [
  ["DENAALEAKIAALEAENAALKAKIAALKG [4H1310-AA]", -1.3],
  ["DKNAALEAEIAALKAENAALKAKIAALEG [4H3165-AA]", -1.24],
  ["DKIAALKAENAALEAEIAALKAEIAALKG [4H2698-AA]", 2.26],
  ["DKNAALKAKIAALEAENAALKAEIAALEG [4H3865-AA]", -1.15],
  ["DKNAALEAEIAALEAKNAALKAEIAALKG [4H3130-AA]", -3.23],
  ["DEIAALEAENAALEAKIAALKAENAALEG [4H171-AA]", -0.711],
  ["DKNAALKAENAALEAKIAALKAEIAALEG [4H3753-AA]", 1.56]
]}
